Reported mortality by item:
- assay_info: Antitumor activity and toxicity on ascites Sarcoma 180 in CD 1 mice
- Format: in vivo
- reported_conditions: mouse, in vivo, ip; 5 mg./kg. i.p.; read-out: % Toxic Deaths
Give the quantity in %, number only.

Sample records with mortality:
COc1cccc2c1C(=O)c1c(O)c3c(c(O)c1C2=O)C[C@@](O)(C(=O)CN1CCN(C)CC1)C[C@@H]3O[C@H]1C[C@H](N)[C@H](O)[C@H](C)O1 [14-[N-(N'-methyl)-piperazino]-daunomycin]; 0
COc1cccc2c1C(=O)c1c(O)c3c(c(O)c1C2=O)C[C@@](O)(C(=O)CN(CCO)CCO)C[C@@H]3O[C@H]1C[C@H](N)[C@H](O)[C@H](C)O1; 0
COc1cccc2c1C(=O)c1c(O)c3c(c(O)c1C2=O)C[C@@](O)(C(=O)CN1CCCCC1)C[C@@H]3O[C@H]1C[C@H](N)[C@H](O)[C@H](C)O1; 0
COc1cccc2c1C(=O)c1c(O)c3c(c(O)c1C2=O)C[C@@](O)(C(C)=O)C[C@@H]3O[C@H]1C[C@H](N)[C@H](O)[C@H](C)O1; 15

// recorded mortality for COc1cccc2c1C(=O)c1c(O)c3c(c(O)c1C2=O)C[C@@](O)(C(=O)CN1CCN(CCO)CC1)C[C@@H]3O[C@H]1C[C@H](N)[C@H](O)[C@H](C)O1 : 0

// recorded mortality for COc1cccc2c1C(=O)c1c(O)c3c(c(O)c1C2=O)C[C@@](O)(C(=O)CO)C[C@@H]3O[C@H]1C[C@H](N)[C@H](O)[C@H](C)O1 [Adriamycin, reference compound] : 10

// recorded mortality for COc1cccc2c1C(=O)c1c(O)c3c(c(O)c1C2=O)C[C@@](O)(C(=O)CN1CCOCC1)C[C@@H]3O[C@H]1C[C@H](N)[C@H](O)[C@H](C)O1 : 0

###

- Tested on: ascites Sarcoma 180
- assay_info: Antitumor activity and toxicity on ascites Sarcoma 180 in CD 1 mice
- Format: in vivo
- reported_conditions: 50 mg./kg. i.p. 1 day after tumor implant; survivors/total
reported_endpoint: LTS (Long Term Survivors after 60 days)

COc1cccc2c1C(=O)c1c(O)c3c(c(O)c1C2=O)C[C@@](O)(C(=O)CN1CCN(C)CC1)C[C@@H]3O[C@H]1C[C@H](N)[C@H](O)[C@H](C)O1 [14-[N-(N'-methyl)-piperazino]-daunomycin]; 1/10
COc1cccc2c1C(=O)c1c(O)c3c(c(O)c1C2=O)C[C@@](O)(C(=O)CN(CCO)CCO)C[C@@H]3O[C@H]1C[C@H](N)[C@H](O)[C@H](C)O1 [14-diethanolaminodaunomycin]; 4/17
COc1cccc2c1C(=O)c1c(O)c3c(c(O)c1C2=O)C[C@@](O)(C(=O)CN1CCCCC1)C[C@@H]3O[C@H]1C[C@H](N)[C@H](O)[C@H](C)O1 [14-(N-piperidino)-daunomycin]; 2/10
COc1cccc2c1C(=O)c1c(O)c3c(c(O)c1C2=O)C[C@@](O)(C(=O)CN1CCOCC1)C[C@@H]3O[C@H]1C[C@H](N)[C@H](O)[C@H](C)O1 [14-(N-morpholino)-daunomycin]; 0/7

Next up:
ascites Sarcoma 180 assay, compound COc1cccc2c1C(=O)c1c(O)c3c(c(O)c1C2=O)C[C@@](O)(C(=O)CN1CCN(CCO)CC1)C[C@@H]3O[C@H]1C[C@H](N)[C@H](O)[C@H](C)O1 , recorded LTS (Long Term Survivors after 60 days) = 0/10

###

- System: ascites Sarcoma 180
- assay_info: Antitumor activity and toxicity on ascites Sarcoma 180 in CD 1 mice
- Assay type: in vivo
- reported_conditions: 12.5 mg./kg. i.p. 1 day after tumor implant
Reported T/C (median survival time, % over untreated controls) by item:
Give the quantity in %, number only.

Sample records with T/C (median survival time, % over untreated controls):
COc1cccc2c1C(=O)c1c(O)c3c(c(O)c1C2=O)C[C@@](O)(C(=O)CN(CCO)CCO)C[C@@H]3O[C@H]1C[C@H](N)[C@H](O)[C@H](C)O1; 181
COc1cccc2c1C(=O)c1c(O)c3c(c(O)c1C2=O)C[C@@](O)(C(=O)CN1CCN(C)CC1)C[C@@H]3O[C@H]1C[C@H](N)[C@H](O)[C@H](C)O1 [14-[N-(N'-methyl)-piperazino]-daunomycin]; 167
COc1cccc2c1C(=O)c1c(O)c3c(c(O)c1C2=O)C[C@@](O)(C(=O)CN1CCCCC1)C[C@@H]3O[C@H]1C[C@H](N)[C@H](O)[C@H](C)O1; 200

Next up:
ascites Sarcoma 180 assay, molecule COc1cccc2c1C(=O)c1c(O)c3c(c(O)c1C2=O)C[C@@](O)(C(=O)CN1CCN(CCO)CC1)C[C@@H]3O[C@H]1C[C@H](N)[C@H](O)[C@H](C)O1 , recorded T/C (median survival time, % over untreated controls) = 152

###

- Tested on: ascites Sarcoma 180
- assay_info: Antitumor activity and toxicity on ascites Sarcoma 180 in CD 1 mice
- Format: in vivo
- reported_conditions: 1 mg./kg. i.p. 1 day after tumor implant
Reported T/C (median survival time, % over untreated controls) by item:
Give the quantity in %, number only.

Sample records with T/C (median survival time, % over untreated controls):
COc1cccc2c1C(=O)c1c(O)c3c(c(O)c1C2=O)C[C@@](O)(C(=O)CN(CCO)CCO)C[C@@H]3O[C@H]1C[C@H](N)[C@H](O)[C@H](C)O1 [14-diethanolaminodaunomycin]; 103
COc1cccc2c1C(=O)c1c(O)c3c(c(O)c1C2=O)C[C@@](O)(C(=O)CN1CCN(CCO)CC1)C[C@@H]3O[C@H]1C[C@H](N)[C@H](O)[C@H](C)O1; 103
COc1cccc2c1C(=O)c1c(O)c3c(c(O)c1C2=O)C[C@@](O)(C(=O)CN1CCCCC1)C[C@@H]3O[C@H]1C[C@H](N)[C@H](O)[C@H](C)O1 [14-(N-piperidino)-daunomycin]; 100
COc1cccc2c1C(=O)c1c(O)c3c(c(O)c1C2=O)C[C@@](O)(C(C)=O)C[C@@H]3O[C@H]1C[C@H](N)[C@H](O)[C@H](C)O1 [Daunomycin]; 193
COc1cccc2c1C(=O)c1c(O)c3c(c(O)c1C2=O)C[C@@](O)(C(=O)CN1CCN(C)CC1)C[C@@H]3O[C@H]1C[C@H](N)[C@H](O)[C@H](C)O1 [14-[N-(N'-methyl)-piperazino]-daunomycin]; 103
COc1cccc2c1C(=O)c1c(O)c3c(c(O)c1C2=O)C[C@@](O)(C(=O)CO)C[C@@H]3O[C@H]1C[C@H](N)[C@H](O)[C@H](C)O1 [Adriamycin, reference compound]; 177

Next up:
// recorded T/C (median survival time, % over untreated controls) for COc1cccc2c1C(=O)c1c(O)c3c(c(O)c1C2=O)C[C@@](O)(C(=O)CN1CCOCC1)C[C@@H]3O[C@H]1C[C@H](N)[C@H](O)[C@H](C)O1 [14-(N-morpholino)-daunomycin] : 111

###

Reported Toxic Deaths by item:
- Tested on: ascites Sarcoma 180
- assay_info: Antitumor activity and toxicity on ascites Sarcoma 180 in CD 1 mice
- Assay type: in vivo
- reported_conditions: 1 mg./kg. i.p.; deaths/total

Sample records with Toxic Deaths:
COc1cccc2c1C(=O)c1c(O)c3c(c(O)c1C2=O)C[C@@](O)(C(C)=O)C[C@@H]3O[C@H]1C[C@H](N)[C@H](O)[C@H](C)O1 [Daunomycin]; 0/20
COc1cccc2c1C(=O)c1c(O)c3c(c(O)c1C2=O)C[C@@](O)(C(=O)CN1CCN(C)CC1)C[C@@H]3O[C@H]1C[C@H](N)[C@H](O)[C@H](C)O1 [14-[N-(N'-methyl)-piperazino]-daunomycin]; 0/10

Next up:
// recorded Toxic Deaths for COc1cccc2c1C(=O)c1c(O)c3c(c(O)c1C2=O)C[C@@](O)(C(=O)CO)C[C@@H]3O[C@H]1C[C@H](N)[C@H](O)[C@H](C)O1 [Adriamycin, reference compound] : 0/29

###

- Tested on: ascites Sarcoma 180
- assay_info: Antitumor activity and toxicity on ascites Sarcoma 180 in CD 1 mice
- Assay type: in vivo
- reported_conditions: 5 mg./kg. i.p. 1 day after tumor implant; survivors/total
Reported LTS (Long Term Survivors after 60 days) by item:

Sample records with LTS (Long Term Survivors after 60 days):
COc1cccc2c1C(=O)c1c(O)c3c(c(O)c1C2=O)C[C@@](O)(C(=O)CO)C[C@@H]3O[C@H]1C[C@H](N)[C@H](O)[C@H](C)O1 [Adriamycin, reference compound]; 9/47
COc1cccc2c1C(=O)c1c(O)c3c(c(O)c1C2=O)C[C@@](O)(C(=O)CN1CCOCC1)C[C@@H]3O[C@H]1C[C@H](N)[C@H](O)[C@H](C)O1; 3/10
COc1cccc2c1C(=O)c1c(O)c3c(c(O)c1C2=O)C[C@@](O)(C(=O)CN1CCN(C)CC1)C[C@@H]3O[C@H]1C[C@H](N)[C@H](O)[C@H](C)O1 [14-[N-(N'-methyl)-piperazino]-daunomycin]; 0/10

Next up:
// recorded LTS (Long Term Survivors after 60 days) for COc1cccc2c1C(=O)c1c(O)c3c(c(O)c1C2=O)C[C@@](O)(C(=O)CN1CCN(CCO)CC1)C[C@@H]3O[C@H]1C[C@H](N)[C@H](O)[C@H](C)O1 : 1/10
